Values from paper PMC3544189

System: chymotrypsin-like proteasome activity (20S proteasome + PA28)
Experiment: Inhibition of chymotrypsin-like proteasome activity in the presence of PA28
Assay type: biochemical, human
propertyMeasured: Proteasome inhibition (in words)

COC(=O)CC[C@@H](C)[C@H]1CC[C@H]2[C@@H]3CC[C@@H]4C[C@@H](OC(=O)CCCCCC(=O)O)CC[C@]4(C)[C@H]3CC[C@]12C [Compound 5]    inhibited the proteasome
COC(=O)CC[C@@H](C)[C@H]1CC[C@H]2[C@@H]3CC[C@@H]4C[C@@H](N)CC[C@]4(C)[C@H]3CC[C@]12C [Compound 9, 3-β-amino-lithocholic acid methyl ester]    inhibited the proteasome
COC(=O)CC[C@@H](C)[C@H]1CC[C@H]2[C@@H]3CC[C@@H]4C[C@@H](NC(=O)CCCCCC(=O)O)CC[C@]4(C)[C@H]3CC[C@]12C [Compound 7]    inhibited the proteasome
